Target: Nuclear receptor subfamily 1 group I member 2 (Homo sapiens) (UniProt O75469)
Sequence (O75469 whole entry, looked up): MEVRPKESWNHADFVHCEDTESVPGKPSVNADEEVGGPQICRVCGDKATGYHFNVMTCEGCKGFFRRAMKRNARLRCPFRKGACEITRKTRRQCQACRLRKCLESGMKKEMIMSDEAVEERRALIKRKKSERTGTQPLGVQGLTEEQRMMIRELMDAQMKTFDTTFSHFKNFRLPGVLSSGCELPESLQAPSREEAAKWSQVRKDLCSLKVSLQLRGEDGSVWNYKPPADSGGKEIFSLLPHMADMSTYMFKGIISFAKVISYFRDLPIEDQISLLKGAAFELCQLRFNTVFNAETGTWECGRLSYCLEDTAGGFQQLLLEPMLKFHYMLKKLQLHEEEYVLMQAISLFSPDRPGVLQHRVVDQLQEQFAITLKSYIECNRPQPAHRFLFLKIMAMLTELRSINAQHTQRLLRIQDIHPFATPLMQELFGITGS
Assay: Human pregnane X receptor (PXR) small molecule agonists, qHTS assay (AID 1346982); also: nearly all actives have a fitted effect of over 35% in size
Conditions: PXR-Luc HepG2, CYP3A4 luciferase reporter, 24 h; series mostly up to 92.4 µM
Records with an inconclusive call do not appear. The source made the active and inactive calls. Calls follow the shape of the dose curve; as a rule, active = well fitted activation curve with a large enough effect in the repeat runs; inconclusive = weak or mixed curves; inactive = no such curve, though single readings can be large or run the other way.
Entry note: the call must match one of Y for active, N for inactive

Study these solved cases before continuing.
smilesRepr | targetDesc | category
CCO[Si](CC(C)C)(OCC)OCC | Nuclear receptor subfamily 1 group I member 2 (Homo sapiens) (UniProt O75469) | Y
CCO/C=C1\N=C(c2ccccc2)OC1=O | Nuclear receptor subfamily 1 group I member 2 (Homo sapiens) (UniProt O75469) | N
CSC(=O)c1cccc2nnsc12 | Nuclear receptor subfamily 1 group I member 2 (Homo sapiens) (UniProt O75469) | N

Kindly consider the entry below.
Prompt: So what was the verdict on `C=CC(=O)OCC[N+](C)(C)C` in this test?
Response: N
